- target-or-test-system: N-type calcium channels (IMR-32 cells) (Homo sapiens, UniProt Q00975)
- Sequence (Q00975 whole entry): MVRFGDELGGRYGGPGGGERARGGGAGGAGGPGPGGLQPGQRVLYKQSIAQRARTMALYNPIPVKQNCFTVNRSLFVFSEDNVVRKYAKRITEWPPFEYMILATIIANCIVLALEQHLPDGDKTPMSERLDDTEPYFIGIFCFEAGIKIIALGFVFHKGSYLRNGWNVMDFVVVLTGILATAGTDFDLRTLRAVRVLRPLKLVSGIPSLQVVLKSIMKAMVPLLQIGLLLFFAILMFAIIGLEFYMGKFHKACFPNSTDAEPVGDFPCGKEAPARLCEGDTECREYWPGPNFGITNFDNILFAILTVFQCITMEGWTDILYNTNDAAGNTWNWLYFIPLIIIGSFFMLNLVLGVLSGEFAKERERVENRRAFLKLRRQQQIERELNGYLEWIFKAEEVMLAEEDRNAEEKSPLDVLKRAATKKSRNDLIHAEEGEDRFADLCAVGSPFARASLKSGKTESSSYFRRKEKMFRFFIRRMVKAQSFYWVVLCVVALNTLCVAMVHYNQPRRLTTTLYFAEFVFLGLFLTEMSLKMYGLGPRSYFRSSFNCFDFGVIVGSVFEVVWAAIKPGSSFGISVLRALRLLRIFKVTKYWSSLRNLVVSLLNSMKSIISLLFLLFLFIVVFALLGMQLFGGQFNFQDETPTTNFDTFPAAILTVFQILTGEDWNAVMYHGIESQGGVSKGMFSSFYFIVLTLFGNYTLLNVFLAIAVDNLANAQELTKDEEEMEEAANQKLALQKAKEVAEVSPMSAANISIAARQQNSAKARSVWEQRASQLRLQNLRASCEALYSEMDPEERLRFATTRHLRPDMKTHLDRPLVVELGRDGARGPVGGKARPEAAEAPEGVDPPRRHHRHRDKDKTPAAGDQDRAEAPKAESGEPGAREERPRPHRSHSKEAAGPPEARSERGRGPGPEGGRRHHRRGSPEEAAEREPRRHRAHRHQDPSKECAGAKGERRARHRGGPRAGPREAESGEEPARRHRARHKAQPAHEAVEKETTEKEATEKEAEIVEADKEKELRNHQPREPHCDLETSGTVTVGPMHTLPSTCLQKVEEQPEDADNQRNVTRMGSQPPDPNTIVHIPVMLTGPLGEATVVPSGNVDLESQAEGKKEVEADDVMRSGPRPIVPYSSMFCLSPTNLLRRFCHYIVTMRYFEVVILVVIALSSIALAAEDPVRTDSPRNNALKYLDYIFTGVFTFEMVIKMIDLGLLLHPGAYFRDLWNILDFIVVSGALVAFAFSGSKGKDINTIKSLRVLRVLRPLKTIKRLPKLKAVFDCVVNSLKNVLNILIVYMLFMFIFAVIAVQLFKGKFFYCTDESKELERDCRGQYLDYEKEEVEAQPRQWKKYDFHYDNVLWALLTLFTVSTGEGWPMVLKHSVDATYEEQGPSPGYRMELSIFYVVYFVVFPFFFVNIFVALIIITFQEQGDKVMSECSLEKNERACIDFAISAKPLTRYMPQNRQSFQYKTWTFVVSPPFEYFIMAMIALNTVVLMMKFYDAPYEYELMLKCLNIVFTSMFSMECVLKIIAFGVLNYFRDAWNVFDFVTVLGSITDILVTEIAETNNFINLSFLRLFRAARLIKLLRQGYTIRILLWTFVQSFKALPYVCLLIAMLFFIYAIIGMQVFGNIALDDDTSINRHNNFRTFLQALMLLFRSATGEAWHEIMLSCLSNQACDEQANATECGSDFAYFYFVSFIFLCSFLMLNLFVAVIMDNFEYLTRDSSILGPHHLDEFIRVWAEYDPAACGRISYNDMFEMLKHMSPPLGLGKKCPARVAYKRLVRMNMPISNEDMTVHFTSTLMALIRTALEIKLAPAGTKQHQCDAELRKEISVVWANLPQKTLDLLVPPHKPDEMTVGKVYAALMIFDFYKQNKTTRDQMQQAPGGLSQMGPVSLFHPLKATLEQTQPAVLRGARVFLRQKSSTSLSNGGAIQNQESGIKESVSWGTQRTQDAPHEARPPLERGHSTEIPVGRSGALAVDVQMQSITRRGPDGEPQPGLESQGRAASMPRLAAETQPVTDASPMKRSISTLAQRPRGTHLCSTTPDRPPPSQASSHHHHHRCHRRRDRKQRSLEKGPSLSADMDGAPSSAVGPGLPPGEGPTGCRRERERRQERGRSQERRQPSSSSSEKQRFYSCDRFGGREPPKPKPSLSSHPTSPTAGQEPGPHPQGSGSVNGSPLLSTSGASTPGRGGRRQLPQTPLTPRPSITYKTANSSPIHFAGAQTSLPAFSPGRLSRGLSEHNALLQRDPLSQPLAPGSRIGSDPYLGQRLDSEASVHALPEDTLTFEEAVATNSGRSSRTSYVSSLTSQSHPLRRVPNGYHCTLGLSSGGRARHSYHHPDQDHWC
- measurement-notes: N-type Ca2+ channel blocking in IMR-32 cells using the fluorescent Ca2+ indicator Indo-1
- test-context: 5 μM nitrendipine to block L-type channels, KCl depolarization, 30° C., read-out: Inhibition of Ca^+2 Influx in IMR-32 Cells IC50
Below, each entry is listed with its recorded pIC50.
Just so you know, pIC50 here is -log10 of the concentration in molar units; reply with that number alone.

INSERT INTO measurements (cpd_smiles, observed_property, endpoint_result) VALUES
  ('c1ccc(C(CCCN2CCc3c(ccc4c3OCN(C3CCCCC3)C4)C2)c2ccccc2)cc1', 'pIC50', 5.96),
  ('Oc1c(CN2CCCCCC2)ccc2c1CCN(CCCC(c1ccc(F)cc1)c1ccc(F)cc1)C2', 'pIC50', 5.89),
  ('Oc1c(CN2CCCCCC2)ccc2c1CCN(CCCC(c1ccccc1)c1ccccc1)C2', 'pIC50', 6.09);

Attention now turns to another entry.
Input line: Query: pIC50; subject: `Oc1c(CNC2CCCCC2)ccc2c1CCN(CCCC(c1ccccc1)c1ccccc1)C2`
Output line: 6.00

Data provenance is patent US5767129A.
